# system: MAP kinase p38 (Homo sapiens, UniProt O15264+Q15759+Q16539+P53778)
# test-summary: Binding affinity towards human Mitogen-activated protein kinase p38 expressed as IC50
# Type: protein assay
measurement-type: IC50 (nM)
One number for each entry, in nM.

Consider the reported IC50 for these molecules:
CSc1ccc(-c2nc(-c3ccc(F)cc3)c(-c3ccncc3)n2C)cc1; 520
Clc1ccc(-c2nc(-c3ccc(Oc4ccccc4)cc3)c(-c3ccncc3)[nH]2)cc1; 250
Fc1ccc(-c2[nH]c(-c3ccc(I)cc3)nc2-c2ccncc2)cc1; 100

Below: the item to evaluate.
Ask: For the molecule `CCCOc1ccc(-c2[nH]c(-c3ccc(Cl)cc3)nc2-c2ccncc2)c(OCCC)c1` , give its reported IC50.
Reply: 2400

* * *

# system: Glucagon receptor (Homo sapiens, UniProt P47871)
# Sequence (P47871 whole entry): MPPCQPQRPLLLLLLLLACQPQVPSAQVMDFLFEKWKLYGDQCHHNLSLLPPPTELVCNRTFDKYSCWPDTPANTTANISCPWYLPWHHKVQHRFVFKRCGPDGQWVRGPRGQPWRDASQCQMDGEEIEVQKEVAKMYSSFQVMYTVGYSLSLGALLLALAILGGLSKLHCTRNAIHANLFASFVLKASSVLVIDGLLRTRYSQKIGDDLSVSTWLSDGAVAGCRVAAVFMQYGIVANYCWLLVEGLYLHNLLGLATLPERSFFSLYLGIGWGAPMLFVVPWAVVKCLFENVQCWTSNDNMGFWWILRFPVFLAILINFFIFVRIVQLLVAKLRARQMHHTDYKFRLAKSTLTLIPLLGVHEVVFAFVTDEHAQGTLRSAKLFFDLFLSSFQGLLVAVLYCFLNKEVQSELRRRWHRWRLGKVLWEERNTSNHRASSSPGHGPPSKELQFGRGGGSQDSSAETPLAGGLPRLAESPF
# test-summary: Binding affinity towards human glucagon receptor in absence of Mg2+ expressed as IC50
measurement-type: IC50 (µM)
One number for each entry, in µM.

Batch request: IC50 for each of the following compounds.
1. Clc1ccc(-c2nc(-c3ccc(-c4ccccc4)cc3)c(-c3ccncc3)[nH]2)cc1
2. Clc1ccc(-c2nc(-c3cccc(-c4ccccc4)c3)c(-c3ccncc3)[nH]2)cc1
3. Clc1ccc(-c2nc(-c3ccc(I)cc3)c(-c3ccncc3)[nH]2)cc1

Reply:
1: 0.14; 2: 0.061; 3: 0.13

* * *

# system: MAP kinase p38 (Homo sapiens, UniProt O15264+Q15759+Q16539+P53778)
# test-summary: Binding affinity towards human Mitogen-activated protein kinase p38 expressed as IC50
# Format: protein assay
The label fulfilled is reserved for IC50 strictly under 100 nM; not fulfilled covers values equal to or above it.

Solved entries:
CCCCOc1ccccc1-c1[nH]c(-c2ccc(Cl)cc2)nc1-c1ccncc1; not fulfilled
CCCCc1ccc(-c2[nH]c(-c3ccc(Cl)cc3)nc2-c2ccncc2)cc1; not fulfilled
Fc1ccc(-c2[nH]c(-c3ccc(Br)s3)nc2-c2ccncc2)cc1; not fulfilled

Ask: IC50 strictly < 100 nM for this compound? `Clc1ccc(-c2nc(-c3ccc(I)cc3)c(-c3ccncc3)[nH]2)cc1`
Reply: not fulfilled

Ask: IC50 strictly < 100 nM for this compound? `Clc1ccc(-c2nc(-c3ccc(Cl)cc3)c(-c3ccncc3)[nH]2)cc1`
Reply: fulfilled

Ask: IC50 strictly < 100 nM for this compound? `Fc1ccc(-c2[nH]c(-c3ccc(Cl)cc3)nc2-c2ccncc2)cc1`
Reply: fulfilled

Ask: IC50 strictly < 100 nM for this compound? `Clc1ccc(-c2nc(-c3ccc(-c4ccccc4)cc3)c(-c3ccncc3)[nH]2)cc1`
Reply: not fulfilled

Ask: IC50 strictly < 100 nM for this compound? `Fc1ccc(-c2[nH]c(-c3ccc(Br)o3)nc2-c2ccncc2)cc1`
Reply: not fulfilled

Ask: IC50 strictly < 100 nM for this compound? `Fc1ccc(-c2[nH]c(-c3ccc(Br)cc3)nc2-c2ccncc2)cc1`
Reply: not fulfilled

Ask: IC50 strictly < 100 nM for this compound? `Fc1ccc(-c2[nH]c(CCc3ccccc3)nc2-c2ccncc2)cc1`
Reply: not fulfilled

Ask: IC50 strictly < 100 nM for this compound? `Fc1ccc(-c2[nH]c(-c3cccc(Br)c3)nc2-c2ccncc2)cc1`
Reply: not fulfilled
